tested on: SF-539 CNS; experiment: NCI-60 one-dose screen, 48 h; settings: 10 µM unless noted
Compounds without any hit were thinned out: in the full panel of roughly 83,000, 20% have a hit. Calls of active or inactive are those of the source. How the source made its calls: active means growth percent below 10; inactive means the rest.
// classify into active, inactive

*Q* Tell me the assay call for CCOc1cc(/C=N\NC(=O)N/N=C/c2ccc(O)c(OCC)c2)ccc1O please.
*A* active

*Q* Tell me the assay call for CCNc1cc2c(cc1Br)-c1ccccc1C2=O please.
*A* inactive

*Q* Tell me the assay call for COc1cc2c(cc1OCCCCCOc1ccc(-n3c(C)nc4ccccc4c3=O)cc1)N=C[C@@H]1CCCN1C2=O please.
*A* active

*Q* Tell me the assay call for CCN(CC)CCCCCCNc1cccc2cc(Br)cnc12 please.
*A* inactive

*Q* Tell me the assay call for Cc1cc(C)c(O)c(CNCCCCCCNCc2cc(C)cc(C)c2O)c1 please.
*A* active

*Q* Tell me the assay call for CC(C)=CC/C=C(/C)[C@H]1CC[C@]2(C)[C@@H]1CC[C@@H]1[C@@]3(C)CCC(=O)NC(C)(C)[C@@H]3CC[C@]12C please.
*A* active

*Q* Tell me the assay call for CC1=CC[C@@H]2C(C)(C)C(=O)CC[C@@]2(C)[C@@H]1COc1ccc2ccc(=O)oc2c1 please.
*A* inactive

*Q* Tell me the assay call for COCCCNc1nc(NC(=O)c2cc(Br)cc(C(F)(F)F)c2)cc(-c2cccnc2)n1 please.
*A* inactive

*Q* Tell me the assay call for C#C[C@]1(O)CC[C@H]2[C@@H]3CC=C4c5nc(Nc6ncccn6)sc5CC[C@]4(C)[C@H]3CC[C@@]21C please.
*A* active

*Q* Tell me the assay call for C=CCCCCCCCCC(=O)OC(C)C please.
*A* inactive

*Q* Tell me the assay call for CC/C=C(\C)C(CCC)(CN=O)C(=O)OCC (centres undefined) please.
*A* inactive

*Q* Tell me the assay call for Nc1nc(Nc2ccccc2)c2ncn(Cc3cc4c(cc3Br)OCO4)c2n1 please.
*A* active

*Q* Tell me the assay call for COc1cc(/C=C/C(=O)/C=C/c2ccc(-n3ccnc3C)cc2)ccc1O please.
*A* active

*Q* Tell me the assay call for COc1ncc(-c2ccc3nc(N)n(-c4ccccc4C(F)(F)F)c(=O)c3c2)cc1S(=O)(=O)Nc1ccc(F)cc1F please.
*A* active

*Q* Tell me the assay call for CCCN1CC(c2ccc(OC)c(OC)c2)=C(c2cn(C(=O)OCC)c3ccccc23)C1=O please.
*A* inactive

*Q* Tell me the assay call for Cc1ccc(NC(=O)N[C@@H](Cc2cc(F)cc(F)c2)C(=O)N[C@@H]2C(=O)N3CCC[C@H]3C(=O)N3CCOC[C@H]3C(=O)N[C@@H](C)C(=O)N3C[C@H](C)C[C@H]3C(=O)O[C@H]2C)cc1 please.
*A* inactive

*Q* Tell me the assay call for Cc1ccc(-n2nc3n(/c2=N\C(=O)NS(=O)(=O)c2ccc(C)cc2)CCN3C2=NCCN2)cc1 please.
*A* inactive

*Q* Tell me the assay call for CCN1CCN(CC(=O)Nc2nc3ccc(NCc4ccc(Cl)cc4)cc3s2)CC1 please.
*A* inactive

*Q* Tell me the assay call for O=C1CN(Cc2ccc(C(=O)NO)cc2)C(=O)[C@@H](Cc2ccccc2)N1 please.
*A* inactive
